Consider the following molecules and their measured %Inh readings.
tested on: VEGFR2; construct: gene KDR; details: concentration: 1 μM, replicates: in singlicate; n = 1;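 further: KINOMEscan kinase panel screen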
Give just the number in %; leave the unit off.

O=C1NC(=O)C(c2ccc(Cl)cc2)=C1Nc1cccc(Cl)c1 = 0
Cc1ccc(-c2nc(Nc3ccncc3)c3ccccc3n2)s1 = 0
CNC(=O)c1ccc(C)c(-n2c(C)cc(OCc3ccc(F)cc3F)c(Br)c2=O)c1 = 0
CS(=O)(=O)CCNCc1nc(-c2ccc3ncnc(Nc4ccc(OCc5ccccc5)c(Cl)c4)c3c2)cs1.Cl = 0
CNc1nc(-c2ccc3c(N)n[nH]c3c2)cc(N2C[C@@H](C(=O)Nc3ccccc3)CC[C@H]2C)n1 = 0

(Q) // lookup %Inh | system=VEGFR2 | key= "FC(F)(F)c1ccccc1-c1cc(-c2c[nH]nc2-c2ccccn2)ccn1"
(A) 1

(Q) // lookup %Inh | system=VEGFR2 | key= "Cc1cnc(N)c(/C=C/c2cncc(C(=O)NCCc3ccc(Cl)cc3Cl)c2)c1.Cl"
(A) 0

(Q) // lookup %Inh | system=VEGFR2 | key= "O=c1cc(N2CCOCC2)nc2n(Cc3ccccc3F)ccn12"
(A) 0
